Hello, the source for this data is ChEMBL document CHEMBL1152501, in case you need it.

Assay: Immunostimulatory activity in C57BL/6 mouse BMDC assessed as increase in mean fluorescence intensity of MHC class2 expression at 10 ug relative to untreated control
Assay type: functional
Can you tell me fold change (FC) for the items I'm about to list?

[in] Please give the documented fold change (FC) of `COC(=O)[C@H]1O[C@@H](O[C@H]2CC[C@]3(C)[C@H]4C(=O)C=C5[C@@H]6C[C@@](C)(C(=O)O[C@@H]7O[C@H](CO)[C@@H](O)[C@H](O)[C@H]7O)CC[C@]6(C)CC[C@@]5(C)[C@]4(C)CC[C@H]3C2(C)C)[C@H](O[C@@H]2O[C@H](C(=O)O)[C@@H](O)[C@H](O)[C@H]2O)[C@@H](O)[C@@H]1O`
[out] 1.3

[in] Given `COC(=O)[C@H]1O[C@@H](O[C@H]2[C@H](O[C@H]3CC[C@]4(C)[C@H]5C(=O)C=C6[C@@H]7C[C@@](C)(C(=O)O[C@@H]8O[C@H](CO)[C@@H](O)[C@H](O)[C@H]8O)CC[C@]7(C)CC[C@@]6(C)[C@]5(C)CC[C@H]4C3(C)C)O[C@H](C(=O)O)[C@@H](O)[C@@H]2O)[C@H](O)[C@@H](O)[C@@H]1O` , respond with its fold change (FC).
[out] 1.1
